Record form. Attribute: composite z-score. Fill in for each entry.
# assayed.target: E3 ubiquitin-protein ligase XIAP (Homo sapiens)
# experiment.notes: XIAP binders, primary screen, biophysical, small-molecule microarray, fluorescence 635 nm (AID 1181);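 further: score merges 667 nm emission and signal to noise over triplicate slides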
# experimental.setup: small-molecule microarray binding, higher = more signal
Answers are plain numbers.

1) CC(C)=CCCC(C)=CCON=C1C[C@@H](O)[C@@H](O)[C@@H]2[C@@H]3C(=O)N(C[C@@H]4CCCO4)C(=O)[C@@H]3CC[C@H]12
-0.217

# per-item lookup of composite z-score; items listed below
1. CC(C)CON=C1C[C@@H](O)[C@@H](O)[C@@H]2[C@@H]3C(=O)N(c4ccc(F)cc4F)C(=O)[C@@H]3CC[C@H]12
2. O=C1C[C@@H](O)[C@@H](O)[C@@H]2[C@@H]3C(=O)N(c4cccc(Oc5ccccc5)c4)C(=O)[C@@H]3CC[C@H]12

RESULT:
-0.138
-0.0448

# per-item lookup of composite z-score; items listed below
1. CCOC(=O)[C@H](CC(C)C)NC(=O)CCC1CC(OC(=O)NCCc2ccc(F)cc2)CC2(CCCC(COC(=O)NCCOc3ccccc3)O2)O1 (stereo partly specified)
2. O=C1C2=CC[C@H]3C(=O)N(c4cccc(Oc5ccccc5)c4)C(=O)[C@H]3[C@H]2[C@H](O)[C@@H]2O[C@H]12
3. CC(C)=CCCC(C)=CCON=C1C[C@@H](O)[C@@H](O)[C@@H]2[C@@H]3C(=O)N(C(C)(C)C)C(=O)[C@@H]3CC[C@H]12
4. C=C(C)C(=O)OCC1CN2[C@@H](CC[C@@H](C)[C@@H]2c2ccc(Br)cc2)C(=O)O1 (stereo partly specified)

RESULT:
[-0.214, 0.0506, -0.172, -0.0899]

---

Record form. Attribute: z-score. Fill in for each entry.
# experiment.notes: FRG1 promoter luciferase signal modulators, primary screen, FRG1 inhibition for FSHD, cell-based, C2C12 myotubes, firefly/Renilla luciferase, luminescence (AID 1084)
# experimental.setup: higher = more signal, called active from +8 up or from −8 down
Answers are plain numbers.

Below, 2 compounds whose answers are already recorded.
1) CCOC(=O)[C@H](Cc1ccccc1)NC(=O)CCC1CC(OC(=O)NCCc2ccc(F)cc2)CC2(CCCC(COC(=O)NCCc3ccccc3OC)O2)O1 (stereo partly drawn)
0.865
2) CC(=O)O[C@H]1C2=CO[C@H](C)[C@H]3[C@H]4C5=C([C@H](O)[C@H]6O[C@H]6C5=O)[C@H](OC4C)[C@@]23C(=O)[C@@H]2O[C@@H]21 (stereo partly drawn)
-3.35

Next item in the queue.
QUERY: // query z-score value for entry `C#CCCCON=C1C[C@@H](O)[C@@H](O)[C@@H]2[C@@H]3C(=O)N(c4ccc(F)cc4F)C(=O)[C@@H]3CC[C@@H]12`
RESULT: -0.236

---

# assayed.target: Torsin-1A-interacting protein 1 (Homo sapiens)
# experiment.notes: LAP1 binders from COS7 cell lysate, primary screen, small-molecule microarray, 635/667 nm fluorescence (AID 1116)
# experimental.setup: COS7-hLAP1 lysate binding, 635 nm fluorescence, higher = more signal
Record form. Attribute: composite z-score. Fill in for each entry.
Numbers only.

Below, 2 compounds whose answers are already recorded.
1) COC(=O)[C@@H]1CC[C@H](C)[C@@H](c2ccc(C)cc2)N1C(=O)c1ccc(C=NO[C@H](C)c2cn([C@@H]3COC[C@H]3O)nn2)cc1
0.581
2) CC(C)CON=C1C[C@@H](O)[C@@H](O)[C@@H]2[C@@H]3C(=O)N(C(C)(C)C)C(=O)[C@@H]3CC[C@H]12
0.274

QUERY: // query composite z-score value for entry `COc1ccc(O[C@H]2C=C[C@@H](c3ccccc3)O[C@@H]2COC(=O)CCC(C)=NO[C@@H]2O[C@H](COC(C)=O)[C@@H](OC(C)=O)[C@H](OC(C)=O)[C@H]2OC(C)=O)cc1`
RESULT: 0.38
